Numbers sourced from patent US4672068A.

System: Male spontaneously hypertensive rats (SHR), arterial blood pressure
Experiment: Depressor response after intravenous administration (30 μg/kg), Table 1
Assay type: in vivo, rat
Conditions: '90<' means greater than 90
Let's look at some compounds and their measured Duration.

Example results:
CC1=C(C(=O)OCC=Cc2ccccc2)C(c2cccc([N+](=O)[O-])c2)C(C(=O)OCC=Cc2ccccc2)=C(C)N1 (centres unmarked) ... > 90 min
COC(=O)C1=C(C)NC(C)=C(C(=O)OC(C)C=Cc2ccco2)C1c1cccc([N+](=O)[O-])c1 (centres unmarked) ... > 240 min
COC(=O)C1=C(C)NC(C)=C(C(=O)OC/C=C/c2ccccc2)C1c1cccc([N+](=O)[O-])c1 (centres unmarked) ... > 90 min
COC(=O)C1=C(C)NC(C)=C(C(=O)OCCC=Cc2ccc(C#N)cc2)C1c1cccc([N+](=O)[O-])c1 (centres unmarked) ... > 80 min

Now for another entry.
In: // lookup Duration for CC=CC=CCOC(=O)C1=C(C)NC(C)=C(C(=O)OC)C1c1cccc([N+](=O)[O-])c1 (centres unmarked)
Out: > 90 min
